Target: T1, MPDZ_12, O75970
T1 sequence (O75970 1857-1958, limits assumed, looked up): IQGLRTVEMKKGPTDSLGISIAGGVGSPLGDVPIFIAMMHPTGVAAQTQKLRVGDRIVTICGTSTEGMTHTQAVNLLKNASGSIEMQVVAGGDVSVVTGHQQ
Assay: holdup assay
Design: key: below the threshold = too weak to quantify, mostly under pKd 3.1 to 4
Settings: plain residues with an end cap or a label only (N-terminal biotin on a linker: ado-ado)
observable: pKd

VYPNAKVELV [PDLIM4_iso2, P50479;P50479-1]	below the threshold
FNSYSLTGYV [CLDN2, P57739]	below the threshold
GSGAVEMESV [AQP6, Q13520]	below the threshold
LKVPPEERLI [CRB2, Q5IJ48]	below the threshold
